assay: Solubility in stimulated intestinal fluid at pH 7 after 3 days; type: physicochemical; settings: simulated intestinal fluid
Assay metric: solubility at 72 h (µM)

Study these solved cases before continuing.
Q. What solubility at 72 h value was documented for this compound, `CC(=O)N1CCC(CCOc2ccc(-c3nc4cc(C(N)=O)ccc4[nH]3)cc2)CC1` ?
A. 2

Q. What solubility at 72 h value was documented for this compound, `NC(=O)c1ccc2[nH]c(-c3ccc(OCCC4CCN(Cc5ccc(Cl)cc5)CC4)cc3)nc2c1` ?
A. 2

Q. What solubility at 72 h value was documented for this compound, CC(=O)N1CCCCC1CCOc1ccc(-c2nc3cc(C(N)=O)ccc3[nH]2)cc1 (stereo not given) ?
A. 193

Q. What solubility at 72 h value was documented for this compound, `Cc1ccc(CN2CCC(CCOc3ccc(-c4nc5cc(C(N)=O)ccc5[nH]4)cc3)CC2)cc1` ?
A. 3

Q. What solubility at 72 h value was documented for this compound, Cc1ccc(CN2CCCCC2CCOc2ccc(-c3nc4cc(C(N)=O)ccc4[nH]3)cc2)cc1 (stereo not given) ?
A. 97

(a) NC(=O)c1ccc2[nH]c(-c3ccc(OCCC4CCCCN4C(=O)c4ccccc4)cc3)nc2c1 (stereo not given)
(b) NC(=O)c1ccc2[nH]c(-c3ccc(OCCC4CCCCN4Cc4ccccc4)cc3)nc2c1 (stereo not given)
(c) NC(=O)c1ccc2[nH]c(-c3ccc(OCC4CCCN(Cc5ccccc5)C4)cc3)nc2c1 (stereo not given)
(d) NC(=O)c1ccc2[nH]c(-c3ccc(OCCC4CCN(Cc5ccccc5)CC4)cc3)nc2c1
Q. Arrange items by their solubility at 72 h values in increasing order. Answer with the labels in sequence, matching the requested order.
A. d, a, b, c

(a) NC(=O)c1ccc2[nH]c(-c3ccc(OCCC4CCCCN4Cc4ccc(Cl)cc4)cc3)nc2c1 (stereo not given)
(b) NC(=O)c1ccc2[nH]c(-c3ccc(OCCC4CCCCN4Cc4ccc(Cl)c(Cl)c4)cc3)nc2c1 (stereo not given)
Q. Hi, I'm comparing two records. Which one has the lower solubility at 72 h, a or b ? Selection: enter the item's label.
A. a

(I) NC(=O)c1ccc2[nH]c(-c3ccc(OCCCO)cc3)nc2c1
(II) COc1ccc(CN2CCCCC2CCOc2ccc(-c3nc4cc(C(N)=O)ccc4[nH]3)cc2)cc1 (stereo not given)
Q. Sort I and II by solubility at 72 h descending and give the first. Selection: enter the item's label.
A. II
(II: 84 µM, I: 7 µM)

###

experiment: Solubility in stimulated gastric fluid at pH 2 umol after 3 days; format: physicochemical; details: simulated gastric fluid
Assay metric: solubility at 72 h (µM)

(I) NC(=O)c1ccc2[nH]c(-c3ccc(OCCC4CCN(Cc5ccccc5)CC4)cc3)nc2c1
(II) NC(=O)c1ccc2[nH]c(-c3ccc(OCCC4CCN(Cc5ccc(Cl)cc5)CC4)cc3)nc2c1
Q. Hi, I'm comparing two records. Which one has the lower solubility at 72 h, I or II ? Selection: enter the item's label.
A. I
